# system_under_test: HLA-A*02:06
# test_description: IEDB peptide-MHC binding, purified MHC/competitive/radioactivity; filed as Kd, often an IC50 or EC50 that approximates it; bounds were set here for any values at or beyond the usual limits of such assays
# condition_info: source organism: SARS coronavirus Tor2
pKd: −log10 of the molar value.
property: pKd

chain_sequence=FVFNGTSWFI data_value=9.36
chain_sequence=IIFWFSLEI data_value=8.33
chain_sequence=ALLADKFPV data_value=7.64
chain_sequence=KLIEYSDFA data_value=9.15
chain_sequence=SLPSYAAYA data_value=8.06
chain_sequence=FLLPSLATV data_value=9.39
chain_sequence=ALVFLILCFT data_value=6.64
chain_sequence=TLMNVITLV data_value=9.16
chain_sequence=FVDEFYAYL data_value=9.44
